Test system: SH-SY5Y
Experiment: Induction of neurite outgrowth in human SH-SY5Y cells after 5 days
Format: functional, cell-based
Details: 120 h
Values of EC50 strictly less than 10 µM map to 1 (yes), and values of at least 10 µM map to 0 (no).

>>> print(df.to_string())
                                smiles_data  subject_of_test  assigned_class
0  Cc1nc2cc(/C=C/C(=O)NO)ccc2c(=O)n1CCc1ccccc1          SH-SY5Y         1 (yes)
1  Cc1nc2cc(/C=C/C(=O)NO)ccc2c(=O)n1Cc1ccccc1          SH-SY5Y          0 (no)
2  O=C(/C=C/c1ccc2c(=O)n(CCc3ccccc3)cnc2c1)NO          SH-SY5Y          0 (no)
3  CCc1nc2ccc(Cc3ccc(C(=O)NO)cc3)cc2c(=O)n1CCc1ccccc1          SH-SY5Y          0 (no)
4  CCc1nc2cc(/C=C/C(=O)NO)ccc2c(=O)n1CCc1ccc(OC)cc1          SH-SY5Y          0 (no)
5  CC(C)c1nc2cc(/C=C/C(=O)NO)ccc2c(=O)n1CCc1ccccc1          SH-SY5Y          0 (no)
6  CCc1nc2c(Cc3ccc(C(=O)NO)cc3)cccc2c(=O)n1CCc1ccccc1          SH-SY5Y         1 (yes)
7  O=C(/C=C/c1ccc2c(=O)n(CCc3ccccc3)c(C3CC3)nc2c1)NO          SH-SY5Y          0 (no)
8  CCc1nc2cc(F)c(/C=C/C(=O)NO)cc2c(=O)n1CCc1ccccc1          SH-SY5Y         1 (yes)

====

Organism: Homo sapiens
Experiment: Selectivity index, ratio of IC50 for human recombinant HDAC8 to IC50 for human recombinant HDAC6
Quick reference: Ratio IC50 of the listed items.
MEASURED QUANTITY: Ratio IC50

In [3]: df
Out[3]:
                                smiles_data  reading_qualifier  endpoint_value
0  Cc1nc2cccc(/C=C/C(=O)NO)c2c(=O)n1-c1ccccc1                  <               1
1  CCc1nc2cc(/C=C/C(=O)NO)c(F)cc2c(=O)n1CCc1ccccc1                  =             100
2  Cc1nc2cc(/C=C/C(=O)NO)ccc2c(=O)n1CCc1c[nH]c2ccccc12                  =             106
3  Cc1nc2ccc(/C=C/C(=O)NO)cc2c(=O)n1-c1ccccc1                  =              19
4  CCc1nc2cc(Cl)c(/C=C/C(=O)NO)cc2c(=O)n1CCc1ccccc1                  =               3
5  Cc1nc2c(/C=C/C(=O)NO)cccc2c(=O)n1-c1ccccc1                  <               1

====

Overview of recorded pIC50 for various compounds
Molecular target: Histone deacetylase 1 (Homo sapiens, UniProt Q13547)
Sequence (Q13547 whole entry): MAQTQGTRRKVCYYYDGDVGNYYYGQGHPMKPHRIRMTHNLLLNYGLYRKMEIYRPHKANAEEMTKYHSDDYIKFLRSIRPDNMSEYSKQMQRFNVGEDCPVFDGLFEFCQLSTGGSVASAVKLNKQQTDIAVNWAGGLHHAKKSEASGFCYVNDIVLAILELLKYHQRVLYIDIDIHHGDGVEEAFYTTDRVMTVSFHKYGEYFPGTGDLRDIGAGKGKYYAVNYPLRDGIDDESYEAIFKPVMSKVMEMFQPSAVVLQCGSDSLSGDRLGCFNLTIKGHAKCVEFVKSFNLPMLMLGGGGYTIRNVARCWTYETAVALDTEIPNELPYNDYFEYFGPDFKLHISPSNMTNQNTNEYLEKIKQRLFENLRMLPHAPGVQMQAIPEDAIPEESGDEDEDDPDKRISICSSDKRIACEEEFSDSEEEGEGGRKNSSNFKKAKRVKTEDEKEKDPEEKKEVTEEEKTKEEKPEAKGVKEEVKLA
Assay: Inhibition of human recombinant HDAC1 expressed in baculovirus/sf9 cells using RHKKAc as substrate
pIC50: −log10 of the molar value.
MEASURED QUANTITY: pIC50

>>> print(df.to_string())
                                 smiles_data  measured_quantity  reading_qualifier  endpoint_value
 0  CCc1nc2cc(Cc3ccc(C(=O)NO)cc3)ccc2c(=O)n1CCc1ccccc1              pIC50                  =            5.31
 1  Cc1nc2cc(/C=C/C(=O)NO)ccc2c(=O)n1CCc1c[nH]c2ccccc12              pIC50                  =            6.12
 2  CCc1nc2cc(Cl)c(/C=C/C(=O)NO)cc2c(=O)n1CCc1ccccc1              pIC50                  <            5.00
 3  CCc1nc2cc(F)c(/C=C/C(=O)NO)cc2c(=O)n1CCc1ccccc1              pIC50                  =            5.71
 4  CCc1nc2cc(/C=C/C(=O)NO)ccc2c(=O)n1CCc1ccc(F)cc1              pIC50                  =            5.68
 5  O=C(/C=C/c1ccc2c(=O)n(CCc3ccccc3)cnc2c1)NO              pIC50                  =            6.31
 6  O=C(/C=C/c1ccc2c(=O)n(CCc3ccccc3)c(C3CC3)nc2c1)NO              pIC50                  =            6.36
 7  CCc1nc2cc(/C=C/C(=O)NO)c(F)cc2c(=O)n1CCc1ccccc1              pIC50                  =            5.52
 8  Cc1nc2cccc(/C=C/C(=O)NO)c2c(=O)n1-c1ccccc1              pIC50                  =            4.73
 9  CCc1nc2ccc(Cc3ccc(C(=O)NO)cc3)cc2c(=O)n1CCc1ccccc1              pIC50                  =            5.98
10  CCc1nc2cc(/C=C/C(=O)NO)ccc2c(=O)n1CCc1ccccc1              pIC50                  =            5.92
11  CCc1nc2cc(/C=C/C(=O)NO)ccc2c(=O)n1CCc1ccc(OC)cc1              pIC50                  =            5.74
12  Cc1nc2cc(/C=C/C(=O)NO)ccc2c(=O)n1Cc1ccccc1              pIC50                  =            5.84
13  Cc1nc2c(/C=C/C(=O)NO)cccc2c(=O)n1-c1ccccc1              pIC50                  =            4.31
14  Cc1nc2cc(/C=C/C(=O)NO)ccc2c(=O)n1CCc1ccccc1              pIC50                  =            5.73
15  CCc1nc2cc(/C=C/C(=O)NO)ccc2c(=O)n1CCCc1ccccc1              pIC50                  =            5.49
16  Cc1nc2ccc(/C=C/C(=O)NO)cc2c(=O)n1-c1ccccc1              pIC50                  =            5.68
17  CC(C)c1nc2cc(/C=C/C(=O)NO)ccc2c(=O)n1CCc1ccccc1              pIC50                  =            6.41
